Values compiled from patent US12139520B2.

SYSTEM_TESTED: T1, hAMY3R (human, UniProt P30988)
T1 sequence 1: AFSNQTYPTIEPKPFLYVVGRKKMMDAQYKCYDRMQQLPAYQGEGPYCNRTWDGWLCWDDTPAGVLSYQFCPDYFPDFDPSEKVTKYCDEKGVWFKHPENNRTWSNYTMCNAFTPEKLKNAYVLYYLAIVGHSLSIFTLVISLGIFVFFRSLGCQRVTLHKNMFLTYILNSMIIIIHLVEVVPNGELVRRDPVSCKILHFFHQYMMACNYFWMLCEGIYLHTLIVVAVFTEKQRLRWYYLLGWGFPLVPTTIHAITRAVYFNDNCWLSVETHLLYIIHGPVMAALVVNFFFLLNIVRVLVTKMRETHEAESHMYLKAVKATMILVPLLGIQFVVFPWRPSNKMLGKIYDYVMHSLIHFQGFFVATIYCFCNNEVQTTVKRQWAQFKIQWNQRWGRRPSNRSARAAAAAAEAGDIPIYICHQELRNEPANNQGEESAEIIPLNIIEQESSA
T1 sequence 2: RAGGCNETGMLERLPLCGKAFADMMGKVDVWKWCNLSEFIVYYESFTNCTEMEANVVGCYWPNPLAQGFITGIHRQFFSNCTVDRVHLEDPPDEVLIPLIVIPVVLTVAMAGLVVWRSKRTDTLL
PROTOCOL_DESCRIPTION: cell-based or functional assay
Numbered stars: 1 amine (or outer) side, 2 acyl side, 3 side chain; on linkers, the order of the positions; unused ones are H or OH. Bridge positions count the residues as written; N and C are the ends. Square brackets hold non-standard residues; d marks the D form. Ends that are not written are not given here. * marks the point of attachment. C20 diacid = O=C(O)CCCCCCCCCCCCCCCCCCC(=O)*; γGlu = O=C(O)[C@H](CCC(=O)[*:2])N[*:1]; Hyp = O=C(O)[C@@H]1C[C@@H](O)CN1
OUTCOME_MEASURE: hAMY3R EC50 (cAMP) (pM)
Numeric answer only, unit pM assumed.

Before answering, review these 2 worked examples.
KCNTATCTVQRLAHQIYQFTDKDKDNVPPTNVGSNG[Hyp]-NH2 (disulfide 2-7 (inferred); not fully specified; ends not checked) [SEQ ID NO: 30]; 8
GCRTGTCTVQRLAHQIYQFTDKFKDNVAPRSKISPQTY [SEQ ID NO: 230]; 208

Moving on to the next binder.
Need hAMY3R EC50 (cAMP) of {C20 diacid-γGlu}-KCNFATCTVQRLAHQIYQFTDKDKDNVAPRTKVGSNGY-NH2 (disulfide 2-7 (inferred); ends not checked) [SEQ ID NO: 378] , thanks.
27
